System: LNCaP tumor-bearing CB17-SCID mice
Run Description: Biodistribution studies 24 h p.i.
Format: in vivo
Measurement Setup: 177Lu-labelled, mean±SD, n=4-5
Measurement Name: biodistribution: parotis (% ID/g)
// note: answer is a bare numeric in % ID/g

**Query** Query: biodistribution: parotis; subject: `CC(C)(C)[Si](O)(c1ccc(C(=O)N[C@H](CCC(=O)NC[C@@H](NC(=O)CC[C@@H](C(=O)O)N2CCN(CC(=O)O)CCN(CC(=O)O)CCN(CC(=O)O)CC2)C(=O)NCCCCCC(=O)NCCC[C@@H](NC(=O)CC[C@H](NC(=O)N[C@@H](CCC(=O)O)C(=O)O)C(=O)O)C(=O)O)C(=O)O)cc1)C(C)(C)C`
**Result** 0.07

Next:
**Query** Query: biodistribution: parotis; subject: `CC(C)(C)[Si](O)(c1ccc(C(=O)NC[C@@H](NC(=O)CC[C@@H](C(=O)O)N2CCN(CC(=O)O)CCN(CC(=O)O)CCN(CC(=O)O)CC2)C(=O)NCC(=O)N[C@@H](CCCCNC(=O)CCC(=O)NCCC[C@@H](NC(=O)CC[C@H](NC(=O)N[C@@H](CCC(=O)O)C(=O)O)C(=O)O)C(=O)O)C(=O)O)cc1)C(C)(C)C`
**Result** 0.02

**Query** Query: biodistribution: parotis; subject: `CC(C)(C)[Si](O)(c1ccc(C(=O)NC[C@@H](NC(=O)CC[C@@H](C(=O)O)N2CCN(CC(=O)O)CCN(CC(=O)O)CCN(CC(=O)O)CC2)C(=O)N[C@H](CO)C(=O)NCCC(=O)NCCC(=O)NCCC[C@@H](NC(=O)CC[C@H](NC(=O)N[C@@H](CCC(=O)O)C(=O)O)C(=O)O)C(=O)O)cc1)C(C)(C)C`
**Result** 0.06

**Query** Query: biodistribution: parotis; subject: CC(C)(C)[Si](F)(c1ccc(C(=O)NC[C@@H](NC(=O)CC[C@@H](C(=O)O)N2CCN(CC(=O)O)CCN(CC(=O)O)CCN(CC(=O)O)CC2)C(=O)N[C@H](CCCCNC(=O)CCC(=O)NCCC[C@@H](NC(=O)CC[C@H](NC(=O)N[C@@H](CCC(=O)O)C(=O)O)C(=O)O)C(=O)O)C(=O)O)cc1)C(C)(C)C [rhPSMA-7.3, reference compound]
**Result** 0.22
